# Test system: Leptosphaeria nodorum on wheat
# method-notes: Greenhouse trial, 4 day residual, Leptosphaeria nodorum on wheat
# Assay type: in vivo
# reported-conditions: Parastagonospora nodorum, 96 h, Table X; compound alone, dose rate 64 ppm; read-out: Observed Efficacy
Give measured pest or weed control at 64 ppm for each item. Keep answers brief.
Return type: number; implicit unit %.

Would you mind telling me what pest or weed control at 64 ppm value was observed for O=C1C2CC=CCC2C(=O)N1SC(Cl)(Cl)Cl (stereo not shown) ? 84

What value of pest or weed control at 64 ppm has been recorded for this entry: "O=[N+]([O-])c1cc(C(F)(F)F)c(Cl)c([N+](=O)[O-])c1Nc1ncc(C(F)(F)F)cc1Cl" 81

Look at this molecule and give its reported pest or weed control at 64 ppm. "COc1cc(C)c(C(=O)c2c(OC)ccc(Br)c2C)c(OC)c1OC" 18

Data request, read-out pest or weed control at 64 ppm, for C[C@@]1(c2ccc(Oc3ccccc3)cc2)OC(=O)N(Nc2ccccc2)C1=O (racemic) 80

###

# Test system: Puccinia recondita on wheat
# method-notes: Greenhouse trial, 4 day residual, Puccinia recondita on wheat
# Type: in vivo
# reported-conditions: Puccinia recondita, 96 h, Table IX; compound alone, dose rate 64 ppm; read-out: Observed Efficacy
# binarize pest or weed control at 64 ppm: threshold 20% inclusive, high side rule met, low side rule not met

Textbook exercise: given the entry C[C@@]1(c2ccc(Oc3ccccc3)cc2)OC(=O)N(Nc2ccccc2)C1=O (racemic) [Famoxadone] , state whether its pest or weed control at 64 ppm is greater than or equal to 20%. rule met

Test whether the compound COCC(=O)N(c1c(C)cccc1C)C(C)C(=O)OC (stereo not drawn) [Metalaxyl] records pest or weed control at 64 ppm of 20% or higher. rule not met

// inclusive: pest or weed control at 64 ppm at least 20%? input: COc1cc(C)c(C(=O)c2c(OC)ccc(Br)c2C)c(OC)c1OC [BP-4] rule not met

Test whether the compound N#Cc1c[nH]cc1-c1cccc(Cl)c1Cl [Fenpiclonil] records pest or weed control at 64 ppm of 20% or higher. rule not met

hey, is pest or weed control at 64 ppm for this one >= 20%? O=C1C2CC=CCC2C(=O)N1SC(Cl)(Cl)Cl (stereo not drawn) [Captan] rule met

Tell me whether pest or weed control at 64 ppm is at least 20% here: O=[N+]([O-])c1cc(C(F)(F)F)c(Cl)c([N+](=O)[O-])c1Nc1ncc(C(F)(F)F)cc1Cl [Fluazinam] rule met

###

# System: Erysiphe cichoracearum on cucumbers
# method-notes: Greenhouse trial, 4 day residual, Erysiphe cichoracearum on cucumbers
# Type: in vivo
# reported-conditions: Golovinomyces cichoracearum, 96 h, Table XIV (Example 14), 4 day residual, dose rate 50 ppm; read-out: Observed Efficacy
reported-property: pest or weed control at 50 ppm (%)
Please respond with the number in % and leave the unit unwritten.

Looking for the measured pest or weed control at 50 ppm of CCCC(Cn1cncn1)c1ccc(Cl)cc1Cl (stereo not drawn) , can you help? 67

Returns the measured pest or weed control at 50 ppm for the input compound. Input: CC(C)(C)C(=O)C(Oc1ccc(Cl)cc1)n1cncn1 (stereo not drawn) 47

May I ask what pest or weed control at 50 ppm has been recorded for "COc1cc(C)c(C(=O)c2c(OC)ccc(Br)c2C)c(OC)c1OC" ? 97

Looking for the measured pest or weed control at 50 ppm of CC(C)(C)C(O)C(Oc1ccc(Cl)cc1)n1cncn1 (stereo not drawn) , can you help? 68

Item OC(c1ccc(Cl)cc1)(c1cncnc1)c1ccccc1Cl (stereo not drawn) has what recorded pest or weed control at 50 ppm? 67

Consider the compound shown here: "CON=C(Cc1cccnc1)c1ccc(Cl)cc1Cl" What is its recorded pest or weed control at 50 ppm? 20

Value source: patent US6346535B1
